Source listed as ChEMBL document CHEMBL1157437.

# key: entry, value: inhibition at 30 µg/mL
tested on: NRK; experiment: Effect on morphological reversion in src transformed NRK cells at 30 ug/mL; assay type: functional; details: Rattus norvegicus

Lab entry: NRK assay, compound `CCCC[C@@]1(OC(=O)CCC(=O)OC)CC[C@]2(CC[C@H](C)[C@@H](C/C=C(C)/C=C/[C@H](O)[C@@H](C)/C=C/C(=O)O)O2)O[C@H]1/C=C/C(C)=C/C(=O)O` , inhibition at 30 µg/mL = > 80%

###

# key: entry, value: inhibition at 100 µg/mL
test system: NRK; test: Effect on morphological reversion in src transformed NRK cells at 100 ug/mL; assay type: functional; details: Rattus norvegicus

Worked examples, 3 molecules total:
structure: CCCC[C@@]1(OC(=O)CCC(=O)O)CC[C@]2(CC[C@H](C)[C@@H](C/C=C(C)/C=C/C(=O)O)O2)O[C@H]1/C=C/C(C)=C/C(=O)O
inhibition at 100 µg/mL: < 10%
--
structure: CCCC[C@]1([C@H](/C=C/C(C)=C/C(=O)O)OC(=O)CCC(=O)O)CC[C@]2(CC[C@H](C)[C@@H](C/C=C(C)/C=C/[C@H](O)[C@@H](C)/C=C/C(=O)O)O2)O1
inhibition at 100 µg/mL: < 10%
--
structure: CCCC[C@@]1(OC(=O)CCC(=O)O)CC[C@]2(CC[C@H](C)[C@@H](C/C=C(C)/C=C/[C@H](OC(C)=O)[C@@H](C)/C=C/C(=O)O)O2)O[C@H]1/C=C/C(C)=C/C(=O)O
inhibition at 100 µg/mL: > 80%

Lab note: measured inhibition at 100 µg/mL of `CCCC[C@@]1(OC(=O)CCC(=O)O)CC[C@]2(CC[C@H](C)[C@@H](C/C=C(C)/C=C/[C@H](O[Si](C)(C)C(C)(C)C)[C@@H](C)/C=C/C(=O)O)O2)O[C@H]1/C=C/C(C)=C/C(=O)O` was < 10%

Lab note: measured inhibition at 100 µg/mL of `CCCC[C@@]1(OC(=O)CCC(=O)O)CC[C@]2(CC[C@H](C)[C@@H](C/C=C(C)/C=C/[C@H](O)[C@@H](C)/C=C/C(=O)OC)O2)O[C@H]1/C=C/C(C)=C/C(=O)O` was > 80%

###

# key: entry, value: inhibition at 30 µg/mL
test system: NRK; experiment: Effect on morphological reversion in src transformed NRK cells at 30 ug/mL; type: functional; details: Rattus norvegicus

molecule: CC(/C=C/[C@H](O)[C@@H](C)/C=C/C(=O)O)=C\C[C@H]1O[C@]2(CC[C@H](C)[C@H](/C=C/C(C)=C/C(=O)O)O2)CC[C@@H]1C
inhibition at 30 µg/mL: < 10%
//
molecule: CCCC[C@@]1(OCSC)CC[C@]2(CC[C@H](C)[C@@H](C/C=C(C)/C=C/[C@H](O)[C@@H](C)/C=C/C(=O)O)O2)O[C@H]1/C=C/C(C)=C/C(=O)O
inhibition at 30 µg/mL: 20%
//
molecule: CCCC[C@@]1(OC(=O)CCC(=O)O)CC[C@]2(CC[C@H](C)[C@@H](C/C=C(\C)CO)O2)O[C@H]1/C=C/C(C)=C/C(=O)O
inhibition at 30 µg/mL: < 10%
//
molecule: CC(/C=C/[C@H](O)[C@@H](C)/C=C/C(=O)O)=C\C[C@H]1O[C@@]2(CC[C@H](C)[C@H](/C=C/C(C)=C/C(=O)O)O2)CC[C@@H]1C
inhibition at 30 µg/mL: 20%

Lab note: measured inhibition at 30 µg/mL of CCCC[C@@]1(OC(=O)CCC(=O)O)CC[C@]2(CC[C@H](C)[C@@H](C/C=C(C)/C=C/[C@H](O)[C@@H](C)CCC(=O)O)O2)O[C@H]1/C=C/C(C)=C/C(=O)O [2,3-DIHYDROREVEROMYCIN A] was 50%

Lab note: measured inhibition at 30 µg/mL of CCCC[C@@]1(OC(=O)CCC(=O)O)CC[C@]2(CC[C@H](C)[C@@H](C/C=C(C)/C=C/[C@@H](O)[C@@H](C)CCC(=O)O)O2)O[C@H]1/C=C/C(C)=C/C(=O)O [2,3-DIHYDRO-5-EPIREVEROMYCIN A] was < 10%

Lab note: measured inhibition at 30 µg/mL of `CCCC[C@@]1(OC(=O)CCC(=O)O)CC[C@]2(CC[C@H](C)[C@@H](C/C=C(C)/C=C/[C@H](OC(C)=O)[C@@H](C)/C=C/C(=O)O)O2)O[C@H]1/C=C/C(C)=C/C(=O)O` was > 80%

Lab note: measured inhibition at 30 µg/mL of `CCCC[C@@]1(OC(=O)CCC(=O)O)CC[C@]2(CC[C@H](C)[C@@H](C/C=C(\C)COC(=O)CCC(=O)O)O2)O[C@H]1/C=C/C(C)=C/C(=O)O` was < 10%

Lab note: measured inhibition at 30 µg/mL of `CCCC[C@@]1(OC)CC[C@]2(CC[C@H](C)[C@@H](C/C=C(C)/C=C/[C@H](O)[C@@H](C)/C=C/C(=O)O)O2)O[C@H]1/C=C/C(C)=C/C(=O)O` was > 80%

Lab note: measured inhibition at 30 µg/mL of `CCCC[C@@]1(OC(=O)CCC(=O)O)CC[C@]2(CC[C@H](C)[C@@H](C/C=C(C)/C=C/[C@H](O)[C@@H](C)/C=C/C(=O)OC)O2)O[C@H]1/C=C/C(C)=C/C(=O)O` was > 80%
